target_desc: feline FcRn (FCN-F82W3, Acrobiosystems) (feline)
experiment_notes: SPR Carterra, IgG coupled, pH 6.0
The reader will find reported koff values listed item by item below.
I only need the number, in s⁻¹, no unit after it.

Use the examples below as a reference point.
binder: anti-NGF feline IgG1a, Fc variant S428L, I383L (antibody, part only; not given: anti-NGF variable domains, light chain, not shown: another chain or arm of the molecule; small tags and cut ends) Fc: PPEMLGGPSIFIFPPKPKDTLSISRTPEVTCLVVDLGPDDSDVQITWFVDNTQVYTAKTSPREEQFNSTYRVVSVLPILHQDWLKGKEFKCKVNSKSLPSPIERTISKAKGQPHEPQVYVLPPAQEELSRNKVSVTCLIKSFHPPDIAVEWELTGQPEPENNYRTTPPQLDSDGTYFVYSKLSVDRSHWQRGNTYTCSVLHEALHSHHTQKSLTQSPGK
value: 0.0162
--
binder: anti-NGF feline IgG1a, Fc variant S434Y, K326D (antibody, part only; not given: anti-NGF variable domains, light chain, not shown: another chain or arm of the molecule; small tags and cut ends) Fc: PPEMLGGPSIFIFPPKPKDTLSISRTPEVTCLVVDLGPDDSDVQITWFVDNTQVYTAKTSPREEQFNSTYRVVSVLPILHQDWLKGKEFKCKVNSDSLPSPIERTISKAKGQPHEPQVYVLPPAQEELSRNKVSVTCLIKSFHPPDIAVEWEITGQPEPENNYRTTPPQLDSDGTYFVYSKLSVDRSHWQRGNTYTCSVSHEALHYHHTQKSLTQSPGK
value: 0.00549
--
binder: anti-NGF feline IgG1a, Fc variant R334D, T437L (antibody, part only; not given: anti-NGF variable domains, light chain, not shown: another chain or arm of the molecule; small tags and cut ends) Fc: PPEMLGGPSIFIFPPKPKDTLSISRTPEVTCLVVDLGPDDSDVQITWFVDNTQVYTAKTSPREEQFNSTYRVVSVLPILHQDWLKGKEFKCKVNSKSLPSPIEDTISKAKGQPHEPQVYVLPPAQEELSRNKVSVTCLIKSFHPPDIAVEWEITGQPEPENNYRTTPPQLDSDGTYFVYSKLSVDRSHWQRGNTYTCSVSHEALHSHHLQKSLTQSPGK
value: 0.0437
--
binder: anti-NGF feline IgG1a, Fc variant S428Y, Q311V (antibody, part only; not given: Anti-NGF variable domains, not shown: another chain or arm of the molecule; small tags and cut ends) Fc: PPEMLGGPSIFIFPPKPKDTLSISRTPEVTCLVVDLGPDDSDVQITWFVDNTQVYTAKTSPREEQFNSTYRVVSVLPILHVDWLKGKEFKCKVNSKSLPSPIERTISKAKGQPHEPQVYVLPPAQEELSRNKVSVTCLIKSFHPPDIAVEWEITGQPEPENNYRTTPPQLDSDGTYFVYSKLSVDRSHWQRGNTYTCSVYHEALHSHHTQKSLTQSPGK
value: 0.00977

Alright, here's another binder for you.
State the recorded koff for this entry: anti-NGF feline IgG1a, Fc variant S428Y (antibody, part only; not given: anti-NGF variable domains, not shown: another chain or arm of the molecule; small tags and cut ends) Fc: PPEMLGGPSIFIFPPKPKDTLSISRTPEVTCLVVDLGPDDSDVQITWFVDNTQVYTAKTSPREEQFNSTYRVVSVLPILHQDWLKGKEFKCKVNSKSLPSPIERTISKAKGQPHEPQVYVLPPAQEELSRNKVSVTCLIKSFHPPDIAVEWEITGQPEPENNYRTTPPQLDSDGTYFVYSKLSVDRSHWQRGNTYTCSVYHEALHSHHTQKSLTQSPGK 0.0184
